Settings: 318.15 K; 60000 kPa; Liquid; Vibrating tube method
measured-attribute: mass density (kg/m3)

>>> observed_measurement("CC(C)OC(C)C")
759.21
>>> observed_measurement("COC(C)(C)C")
773.29
>>> observed_measurement("CCOC(C)(C)C")
773.61
>>> observed_measurement("CC(C)CCOCCC(C)C")
799.93
>>> observed_measurement("CCCCCOCCCCC")
806
>>> observed_measurement("CCCCOCC")
779.08
>>> observed_measurement("CCCOCCC")
777.53
>>> observed_measurement("CCCCOC")
775.71

* * *

Details: 333.15 K; 30000 kPa; Liquid; Vibrating tube method
± gives the expanded uncertainty stated by the source.
mass density listing for selected compounds.
measured-attribute: mass density

>>> observed_measurement("CC(C)CCOCCC(C)C [di-(3-methylbutyl) ether]")
"769.84 ± 0.5 kg/m3"
>>> observed_measurement("CC(C)OC(C)C [diisopropyl ether]")
"721.21 ± 0.57 kg/m3"
>>> observed_measurement("CCCOCCC [dipropyl ether]")
"742.3 ± 0.54 kg/m3"
>>> observed_measurement("CCCCOC [butyl methyl ether]")
"739.61 ± 0.54 kg/m3"
>>> observed_measurement("CCOC(C)(C)C [2-ethoxy-2-methylpropane]")
"736.64 ± 0.55 kg/m3"
>>> observed_measurement("CCCCOCC [butyl ethyl ether]")
"744.2 ± 0.54 kg/m3"
>>> observed_measurement("CCCCCOCCCCC [dipentyl ether]")
"776.68 ± 0.5 kg/m3"

* * *

Conditions: 313.15 K; 20000 kPa; Liquid; Vibrating tube method
measured-attribute: mass density (kg/m3)

>>> observed_measurement("CCCCOC")
747.36
>>> observed_measurement("CCCOCCC")
749.62
>>> observed_measurement("CCCCCOCCCCC")
783.37
>>> observed_measurement("COC(C)(C)C")
743.29
>>> observed_measurement("CCOC(C)(C)C")
743.71
>>> observed_measurement("CC(C)CCOCCC(C)C")
776.05
>>> observed_measurement("CC(C)OC(C)C")
727.77
>>> observed_measurement("CCCCOCC")
751.59

* * *

Settings: 323.15 K; 55000 kPa; Liquid; Vibrating tube method
measured-attribute: mass density (kg/m3)

>>> observed_measurement("CC(C)OC(C)C")
751.72
>>> observed_measurement("CC(C)CCOCCC(C)C")
793.83
>>> observed_measurement("CCCCCOCCCCC")
799.95
>>> observed_measurement("CCCCOC")
768.43
>>> observed_measurement("CCOC(C)(C)C")
766.26
>>> observed_measurement("COC(C)(C)C")
765.85
>>> observed_measurement("CCCCOCC")
771.97
>>> observed_measurement("CCCOCCC")
770.41

* * *

Settings: 298.15 K; 100 kPa; Liquid; Vibrating tube method
In this section we review reported mass density values for a set of molecules.
measured-attribute: mass density (kg/m3)

>>> observed_measurement("COC(C)(C)C")
735.34
>>> observed_measurement("CCOC(C)(C)C")
735.9
>>> observed_measurement("CCCCOC")
740.78
>>> observed_measurement("CCCCOCC")
745.17
>>> observed_measurement("CCCCCOCCCCC")
778.94
>>> observed_measurement("CC(C)CCOCCC(C)C")
770.6
>>> observed_measurement("CC(C)OC(C)C")
718.29
>>> observed_measurement("CCCOCCC")
742.71

Sourced from the NIST ThermoML archive (doi:10.1016/j.fluid.2016.02.009)
